Form field: pIC50 (one value per entry).
# experimental_target: Recombinant human His-tagged Trim24-PHD-bromodomain (Homo sapiens)
# Construct: Recombinant human His-tagged Trim24-PHD-bromodomain (produced in-house)
# Sequence (O15164 824-1006 limits assumed): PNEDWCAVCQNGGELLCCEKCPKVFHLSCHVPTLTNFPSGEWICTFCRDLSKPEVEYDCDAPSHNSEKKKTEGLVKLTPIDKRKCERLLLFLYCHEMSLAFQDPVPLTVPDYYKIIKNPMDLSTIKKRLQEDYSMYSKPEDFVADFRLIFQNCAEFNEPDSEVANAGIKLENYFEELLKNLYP
# experiment_description: Trim24 AlphaScreen Assay
# study_conditions: 5 nM Trim24 protein, 15 nM biotinylated H3K23ac (1-33aa) peptide
# Procedure: Recombinant human His-tagged Trim24-PHD-bromodomain (produced in-house), biotinylated H3K23ac (1-33aa) peptide (AnaSpec, Inc.), and test compound were added to a 384-well OptiPlate (Perkin Elmer) and incubated at room temperature for one hour. […] The average maximum signal was obtained from wells containing all assay components except test compound. […] IC50 values were calculated using a four-parameter logistic curve fit.
pIC50: −log10 of the molar value.

Reference set, count: 4
>  <chemical_structure>
Cn1c(=O)n(C)c2cc(Oc3cccc(OCc4ccccc4)c3)c(NS(=O)(=O)c3ccccc3Br)cc21

>  <experimental_target>
Recombinant human His-tagged Trim24-PHD-bromodomain (Homo sapiens)

>  <result_value>
< 6.00

$$$$
>  <chemical_structure>
Cc1nc(S(=O)(=O)Nc2cc3c(cc2Oc2cccc(OC(C)C)c2)n(C)c(=O)n3C)cn1C

>  <experimental_target>
Recombinant human His-tagged Trim24-PHD-bromodomain (Homo sapiens)

>  <result_value>
6.00 to 7.00

$$$$
>  <chemical_structure>
CCCOc1cc(OCCCCN2CCCC2)cc(Oc2cc3c(cc2NS(=O)(=O)c2ccc(OC)c(OC)c2)n(C)c(=O)n3C)c1

>  <experimental_target>
Recombinant human His-tagged Trim24-PHD-bromodomain (Homo sapiens)

>  <result_value>
7.00 to 8.00

$$$$
>  <chemical_structure>
Cn1cnc(S(=O)(=O)Nc2cc3c(cc2Oc2cccc(OCc4cccc(C#N)c4)c2)n(C)c(=O)n3C)c1

>  <experimental_target>
Recombinant human His-tagged Trim24-PHD-bromodomain (Homo sapiens)

>  <result_value>
< 6.00

$$$$

Qu. Endpoint output: pIC50 of "CCCOc1cccc(Oc2cc3c(cc2NS(=O)(=O)c2cn(C)cn2)n(C)c(=O)n3C)c1C" . Value?
Ans. < 6.00

Qu. Endpoint output: pIC50 of "CCCOc1cc(OCCCCCCN)cc(Oc2cc3c(cc2NS(=O)(=O)c2cccc(C(=O)O)c2)n(C)c(=O)n3C)c1" . Value?
Ans. 6.00 to 7.00

Qu. Endpoint output: pIC50 of "CCCOc1cc(OCCCOC)cc(Oc2cc3c(cc2NS(=O)(=O)C2CC2)n(C)c(=O)n3C)c1" . Value?
Ans. 6.00 to 7.00

---

Form field: pIC50 (one value per entry).
# experimental_target: Recombinant human His-tagged Trim24-PHD-bromodomain (Homo sapiens, UniProt O15164)
# Construct: Recombinant human His-tagged Trim24-PHD-bromodomain (produced in-house)
# Sequence (O15164 824-1006 limits assumed): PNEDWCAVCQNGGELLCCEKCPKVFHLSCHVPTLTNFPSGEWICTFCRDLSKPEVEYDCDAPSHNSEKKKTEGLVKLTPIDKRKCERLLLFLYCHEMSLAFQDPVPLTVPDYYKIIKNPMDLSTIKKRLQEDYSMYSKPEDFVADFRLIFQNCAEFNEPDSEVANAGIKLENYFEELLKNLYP
# experiment_description: Trim24 AlphaScreen Assay
# study_conditions: 5 nM Trim24 protein, 15 nM biotinylated H3K23ac (1-33aa) peptide
pIC50: −log10 of the molar value.

Reference set, count: 2
>  <compound>
Cn1cnc(S(=O)(=O)Nc2cc3c(cc2Oc2cc(OCC4CC4)cc(OCC4CC4)c2)n(C)c(=O)n3C)c1 [Example 117]

>  <experimental_target>
Recombinant human His-tagged Trim24-PHD-bromodomain (Homo sapiens, UniProt O15164)

>  <pIC50>
7.00 to 8.00

$$$$
>  <compound>
Cn1cc(S(=O)(=O)Nc2cc3c(cc2Oc2cccc(OC(F)(F)F)c2)n(C)c(=O)n3C)cn1 [Example 73]

>  <experimental_target>
Recombinant human His-tagged Trim24-PHD-bromodomain (Homo sapiens, UniProt O15164)

>  <pIC50>
< 6.00

$$$$

Qu. Endpoint output: pIC50 of Cn1c(=O)n(C)c2cc(Oc3cccc(OCC4CC4)c3)c(NS(=O)(=O)c3cccnc3)cc21 [Example 128] . Value?
Ans. 7.00 to 8.00

Qu. Endpoint output: pIC50 of Cn1c(=O)n(C)c2cc(Oc3cccc(OCc4ccccc4)c3)c(NS(=O)(=O)c3ccc4c(c3)OCO4)cc21 [Example 36] . Value?
Ans. 6.00 to 7.00

Qu. Endpoint output: pIC50 of Cc1c(S(=O)(=O)Nc2cc3c(cc2Oc2cccc(OCC4CC4)c2)n(C)c(=O)n3C)cnn1C [Example 102] . Value?
Ans. 7.00 to 8.00

Qu. Endpoint output: pIC50 of CCCOc1cc(OCCCOC)cc(Oc2cc3c(cc2NS(=O)(=O)c2cccc(F)c2)n(C)c(=O)n3C)c1 [Example 156] . Value?
Ans. 6.00 to 7.00

Qu. Endpoint output: pIC50 of CCCOc1cc(OCCCCCCN)cc(Oc2cc3c(cc2NS(=O)(=O)c2cn(C)cn2)n(C)c(=O)n3C)c1 [Example 8, 2,2,2-trifluoroacetate] . Value?
Ans. 8.00 to 9.00

Ref: patent US20160060260A1
